- Procedure text: Solubility of Compound 1 in ethanol
- Type: physicochemical
- Test context: 99% ethanol, organic solvent or mixture, 100.43 mg in 37 μl 99% ethanol, heated to 50-60° C.; transparent syrup; read-out: solubility in ethanol: final concentration fully dissolved
Experimental endpoint: solubility (mg/mL)
Numeric answer only, unit mg/mL assumed.

// sample CC(C)OC(=O)[C@H](C)N[P@](=O)(OC[C@H]1O[C@@H](n2ccc(=O)[nH]c2=O)[C@@](F)(Cl)[C@@H]1O)Oc1ccccc1 [Compound 1] , its solubility was 2700
